- System: T-24
- ASSAY PROTOCOL: Binding affinity to HRAS quadruplex DNA mutant in human T24 cells assessed as reduction in gene expression at 0.5 to 5 uM treated for 24 hrs prior to transfection measured 72 hrs post transfection by dual-luciferase reporter gene assay relative to control
- Type: cell-based
Activity calls are given as the source filed them. The rule behind the calls is not given here.
PROPERTY NAME: Activity

{"columns": ["STRUCTURE SMILES", "RESULT"],
 "data": [
  ["N=C(N)NCCCNc1c2c(c(NCCCNC(=N)N)c3sccc13)C(=O)c1ccccc1C2=O", "inactive"],
  ["N=C(N)NCCCCNc1c2c(c(NCCCCNC(=N)N)c3sccc13)C(=O)c1ccccc1C2=O", "inactive"],
  ["N=C(N)NCCCNc1c2c(c(NCCNC(=N)N)c3sccc13)C(=O)c1ccccc1C2=O", "inactive"],
  ["N=C(N)NCCNc1c2c(c(NCCNC(=N)N)c3sccc13)C(=O)c1ccccc1C2=O", "inactive"],
  ["N=C(N)NCCCNc1c2c(c(NCCNC(=N)N)c3ccsc13)C(=O)c1ccccc1C2=O", "inactive"]
]}

====

- Test system: Salmonidae
- ASSAY PROTOCOL: Thermal stabilization of salmon sperm duplex DNA assessed as melting temperature by FRET assay
Active and inactive are the calls of the source. The calls are words filed in the database; no cut-off is given here.

{"columns": ["STRUCTURE SMILES", "TARGET OR SYSTEM", "Activity"],
 "data": [
  ["N=C(N)NCCCNc1c2c(c(NCCCNC(=N)N)c3sccc13)C(=O)c1ccccc1C2=O", "Salmonidae", "Active"],
  ["N=C(N)NCCNc1c2c(c(NCCNC(=N)N)c3sccc13)C(=O)c1ccccc1C2=O", "Salmonidae", "Active"],
  ["N=C(N)NCCCNc1c2c(c(NCCNC(=N)N)c3sccc13)C(=O)c1ccccc1C2=O", "Salmonidae", "Active"],
  ["N=C(N)NCCCCNc1c2c(c(NCCCCNC(=N)N)c3sccc13)C(=O)c1ccccc1C2=O", "Salmonidae", "Active"],
  ["N=C(N)NCCCNc1c2c(c(NCCNC(=N)N)c3ccsc13)C(=O)c1ccccc1C2=O", "Salmonidae", "Active"]
]}

====

- Species on record: Homo sapiens
- ASSAY PROTOCOL: Thermal stabilization of human HRAS2 G-quadruplex FAM-CGGGGCGGGGCGGGGGCGGGGGCG-TAMRA DNA assessed as as change in melting temperature at 1:1 DNA:ligand ratio by FRET assay

{"columns": ["STRUCTURE SMILES", "deltaTm (K)"],
 "data": [
  ["N=C(N)NCCNc1c2c(c(NCCNC(=N)N)c3sccc13)C(=O)c1ccccc1C2=O", 3],
  ["N=C(N)NCCCNc1c2c(c(NCCNC(=N)N)c3ccsc13)C(=O)c1ccccc1C2=O", 4],
  ["N=C(N)NCCCCNc1c2c(c(NCCCCNC(=N)N)c3sccc13)C(=O)c1ccccc1C2=O", 7],
  ["N=C(N)NCCCNc1c2c(c(NCCNC(=N)N)c3sccc13)C(=O)c1ccccc1C2=O", 3],
  ["N=C(N)NCCCNc1c2c(c(NCCCNC(=N)N)c3sccc13)C(=O)c1ccccc1C2=O", 3]
]}

====

- ASSAY PROTOCOL: Binding affinity to human HRAS1 G-quadruplex FAM-TCGGGTTGCGGGCGCAGGGCACGGGCG-TAMRA DNA assessed as quenching of fluorescence emission by FRET titration assay
# 1 (yes) = Kd below 300 nM (exclusive); 0 (no) = Kd at/above 300 nM

{"columns": ["STRUCTURE SMILES", "LABEL"],
 "data": [
  ["N=C(N)NCCNc1c2c(c(NCCNC(=N)N)c3sccc13)C(=O)c1ccccc1C2=O", "0 (no)"],
  ["N=C(N)NCCCNc1c2c(c(NCCNC(=N)N)c3ccsc13)C(=O)c1ccccc1C2=O", "0 (no)"],
  ["N=C(N)NCCCCNc1c2c(c(NCCCCNC(=N)N)c3sccc13)C(=O)c1ccccc1C2=O", "1 (yes)"],
  ["N=C(N)NCCCNc1c2c(c(NCCNC(=N)N)c3sccc13)C(=O)c1ccccc1C2=O", "1 (yes)"]
]}

====

- ASSAY PROTOCOL: Binding affinity to mouse KRAS G-quadruplex FAM-GCGGGAGGGAGGGAAGGAGGGAGGGAGGGAG-TAMRA DNA assessed as quenching of fluorescence emission by FRET titration assay
# Kd per record follows

{"columns": ["STRUCTURE SMILES", "VALUE UNITS", "Kd"],
 "data": [
  ["N=C(N)NCCCNc1c2c(c(NCCNC(=N)N)c3sccc13)C(=O)c1ccccc1C2=O", "nM", 230],
  ["N=C(N)NCCCNc1c2c(c(NCCCNC(=N)N)c3sccc13)C(=O)c1ccccc1C2=O", "nM", 180],
  ["N=C(N)NCCNc1c2c(c(NCCNC(=N)N)c3sccc13)C(=O)c1ccccc1C2=O", "nM", 250],
  ["N=C(N)NCCCCNc1c2c(c(NCCCCNC(=N)N)c3sccc13)C(=O)c1ccccc1C2=O", "nM", 270],
  ["N=C(N)NCCCNc1c2c(c(NCCNC(=N)N)c3ccsc13)C(=O)c1ccccc1C2=O", "nM", 210]
]}

====

- Tested on: T-24
- ASSAY PROTOCOL: Cellular uptake in human T24 cells after 4 hrs by FACS flow cytometric analysis in presence of dynasore
- Type: ADME, cell-based
- CONDITION NOTES: t-24, 4 h

{"columns": ["STRUCTURE SMILES", "Drug uptake"],
 "data": [
  ["N=C(N)NCCNc1c2c(c(NCCNC(=N)N)c3sccc13)C(=O)c1ccccc1C2=O", "Not Active"],
  ["N=C(N)NCCCNc1c2c(c(NCCNC(=N)N)c3sccc13)C(=O)c1ccccc1C2=O", "Not Active"],
  ["N=C(N)NCCCNc1c2c(c(NCCCNC(=N)N)c3sccc13)C(=O)c1ccccc1C2=O", "Active"],
  ["N=C(N)NCCCNc1c2c(c(NCCNC(=N)N)c3ccsc13)C(=O)c1ccccc1C2=O", "Active"],
  ["N=C(N)NCCCCNc1c2c(c(NCCCCNC(=N)N)c3sccc13)C(=O)c1ccccc1C2=O", "Active"]
]}

====

- System: T-24
- ASSAY PROTOCOL: Binding affinity to wild type HRAS quadruplex DNA in human T24 cells assessed as reduction in gene expression at 0.5 to 5 uM treated for 24 hrs prior to transfection measured 72 hrs post transfection by dual-luciferase reporter gene assay relative to control
- Assay type: cell-based
- Parameters: scale not given: the % may be the effect or the level left
PROPERTY NAME: Activity (%)

{"columns": ["STRUCTURE SMILES", "PROPERTY NAME", "RESULT"],
 "data": [
  ["N=C(N)NCCCCNc1c2c(c(NCCCCNC(=N)N)c3sccc13)C(=O)c1ccccc1C2=O", "Activity", 50],
  ["N=C(N)NCCNc1c2c(c(NCCNC(=N)N)c3sccc13)C(=O)c1ccccc1C2=O", "Activity", 25],
  ["N=C(N)NCCCNc1c2c(c(NCCCNC(=N)N)c3sccc13)C(=O)c1ccccc1C2=O", "Activity", 50],
  ["N=C(N)NCCCNc1c2c(c(NCCNC(=N)N)c3ccsc13)C(=O)c1ccccc1C2=O", "Activity", 25]
]}

====

- Species: Homo sapiens
- ASSAY PROTOCOL: Thermal stabilization of human HRAS2 G-quadruplex FAM-CGGGGCGGGGCGGGGGCGGGGGCG-TAMRA DNA assessed as as change in melting temperature at 1:4 DNA:ligand ratio by FRET assay
Items are presented alongside their recorded deltaTm.

{"columns": ["STRUCTURE SMILES", "deltaTm"],
 "data": [
  ["N=C(N)NCCCNc1c2c(c(NCCCNC(=N)N)c3sccc13)C(=O)c1ccccc1C2=O", "17 K"],
  ["N=C(N)NCCCCNc1c2c(c(NCCCCNC(=N)N)c3sccc13)C(=O)c1ccccc1C2=O", "26 K"],
  ["N=C(N)NCCCNc1c2c(c(NCCNC(=N)N)c3sccc13)C(=O)c1ccccc1C2=O", "12 K"],
  ["N=C(N)NCCCNc1c2c(c(NCCNC(=N)N)c3ccsc13)C(=O)c1ccccc1C2=O", "17 K"],
  ["N=C(N)NCCNc1c2c(c(NCCNC(=N)N)c3sccc13)C(=O)c1ccccc1C2=O", "19 K"]
]}

====

- ASSAY PROTOCOL: Binding affinity to human NRAS G-quadruplex FAM-GGGAGGGGCGGGUCUGGG-TAMRA RNA assessed as quenching of fluorescence emission by FRET titration assay
Let's look at some compounds and their measured Kd.
PROPERTY NAME: Kd (µM)

{"columns": ["STRUCTURE SMILES", "PROPERTY NAME", "VALUE UNITS", "RESULT"],
 "data": [
  ["N=C(N)NCCCNc1c2c(c(NCCNC(=N)N)c3ccsc13)C(=O)c1ccccc1C2=O", "Kd", "µM", 0.12],
  ["N=C(N)NCCNc1c2c(c(NCCNC(=N)N)c3sccc13)C(=O)c1ccccc1C2=O", "Kd", "µM", 0.38],
  ["N=C(N)NCCCNc1c2c(c(NCCNC(=N)N)c3sccc13)C(=O)c1ccccc1C2=O", "Kd", "µM", 0.09],
  ["N=C(N)NCCCNc1c2c(c(NCCCNC(=N)N)c3sccc13)C(=O)c1ccccc1C2=O", "Kd", "µM", 0.11],
  ["N=C(N)NCCCCNc1c2c(c(NCCCCNC(=N)N)c3sccc13)C(=O)c1ccccc1C2=O", "Kd", "µM", 0.06]
]}
